Data origin: paper PMC8268887

# Test details: Determination of hemolytic activity
# Assay type: cell-based
# Condition summary: red blood cell suspension in PBS buffer, human red blood cells at 400 µg/mL, 37 °C
Readout type: hemolysis at 60 min (%)

[[record]]
molecule = "NCCCC[C@H](NC(=O)CCN(Cc1ccc(F)cc1)C(=O)[C@H](CCCCN)NC(=O)CCN(Cc1ccc(F)cc1)C(=O)[C@H](CCCCN)NC(=O)CCN(Cc1ccc(F)cc1)C(=O)[C@H](CCCCN)NC(=O)CCN(Cc1ccc(F)cc1)C(=O)[C@H](CCCCN)NC(=O)CCN(Cc1ccc(F)cc1)C(=O)[C@H](CCCCN)NC(=O)CCOCCOCCOCCOCCN)C(=O)N(CCC(=O)NCCOCCOCCOCCOCCC(N)=O)Cc1ccc(F)cc1 [Compound 5, H-sPEG4-[X]6-sPEG4-NH2]"
observed_result = 6.4

[[record]]
molecule = "NCCCC[C@H](NC(=O)CCN(Cc1ccc(F)cc1)C(=O)[C@H](CCCCN)NC(=O)CCN(Cc1ccc(F)cc1)C(=O)[C@H](CCCCN)NC(=O)CCN(Cc1ccc(F)cc1)C(=O)[C@H](CCCCN)NC(=O)CCN(Cc1ccc(F)cc1)C(=O)[C@H](CCCCN)NC(=O)CCN(Cc1ccc(F)cc1)C(=O)[C@H](CCCCN)NC(=O)CCOCCOCCOCCOCCN)C(=O)N(CCC(N)=O)Cc1ccc(F)cc1 [Compound 3, H-sPEG4-[X]6-NH2]"
observed_result = 8.1

[[record]]
molecule = "NCCCC[C@H](NC(=O)CCN(Cc1ccc(F)cc1)C(=O)[C@H](CCCCN)NC(=O)CCN(Cc1ccc(F)cc1)C(=O)[C@H](CCCCN)NC(=O)COCCOCCNC(=O)CCN(Cc1ccc(F)cc1)C(=O)[C@H](CCCCN)NC(=O)CCN(Cc1ccc(F)cc1)C(=O)[C@H](CCCCN)NC(=O)CCN(Cc1ccc(F)cc1)C(=O)[C@@H](N)CCCCN)C(=O)N(CCC(N)=O)Cc1ccc(F)cc1 [Compound 7, H-[X]3-sPEG2-[X]3-NH2]"
observed_result = 6.1

[[record]]
molecule = "NCCCC[C@H](NC(=O)CCN(Cc1ccc(F)cc1)C(=O)[C@H](CCCCN)NC(=O)CCN(Cc1ccc(F)cc1)C(=O)[C@H](CCCCN)NC(=O)CCOCCOCCOCCOCCN)C(=O)N(CCC(=O)NCCOCCOCCOCCOCCC(=O)N[C@@H](CCCCN)C(=O)N(CCC(=O)N[C@@H](CCCCN)C(=O)N(CCC(=O)N[C@@H](CCCCN)C(=O)N(CCC(=O)NCCOCCOCCOCCOCCC(N)=O)Cc1ccc(F)cc1)Cc1ccc(F)cc1)Cc1ccc(F)cc1)Cc1ccc(F)cc1 [Compound 14, H-sPEG4-[X]3-sPEG4-[X]3-sPEG4-NH2]"
observed_result = 9

[[record]]
molecule = "NCCCC[C@H](NC(=O)CCN(Cc1ccc(F)cc1)C(=O)[C@H](CCCCN)NC(=O)CCN(Cc1ccc(F)cc1)C(=O)[C@H](CCCCN)NC(=O)CCN(Cc1ccc(F)cc1)C(=O)[C@H](CCCCN)NC(=O)CCN(Cc1ccc(F)cc1)C(=O)[C@H](CCCCN)NC(=O)CCN(Cc1ccc(F)cc1)C(=O)[C@@H](N)CCCCN)C(=O)N(CCC(N)=O)Cc1ccc(F)cc1 [Compound 1, H-[Lys-βNPhe(4-F)]6-NH2]"
observed_result = 6.6

[[record]]
molecule = "NCCCC[C@H](NC(=O)CCN(Cc1ccc(F)cc1)C(=O)[C@H](CCCCN)NC(=O)CCN(Cc1ccc(F)cc1)C(=O)[C@H](CCCCN)NC(=O)COCCOCCN)C(=O)N(CCC(=O)NCCOCCOCC(=O)N[C@@H](CCCCN)C(=O)N(CCC(=O)N[C@@H](CCCCN)C(=O)N(CCC(=O)N[C@@H](CCCCN)C(=O)N(CCC(=O)NCCOCCOCC(N)=O)Cc1ccc(F)cc1)Cc1ccc(F)cc1)Cc1ccc(F)cc1)Cc1ccc(F)cc1 [Compound 12, H-sPEG2-[X]3-sPEG2-[X]3-sPEG2-NH2]"
observed_result = 8.1

[[record]]
molecule = "NCCCC[C@H](NC(=O)CCN(Cc1ccc(F)cc1)C(=O)[C@H](CCCCN)NC(=O)CCOCCOCCOCCOCCNC(=O)CCN(Cc1ccc(F)cc1)C(=O)[C@H](CCCCN)NC(=O)CCN(Cc1ccc(F)cc1)C(=O)[C@H](CCCCN)NC(=O)CCOCCOCCOCCOCCNC(=O)CCN(Cc1ccc(F)cc1)C(=O)[C@H](CCCCN)NC(=O)CCN(Cc1ccc(F)cc1)C(=O)[C@@H](N)CCCCN)C(=O)N(CCC(N)=O)Cc1ccc(F)cc1 [Compound 18, H-[X]2-sPEG4-[X]2-sPEG4-[X]2-NH2]"
observed_result = 8.3

[[record]]
molecule = "NCCCC[C@H](NC(=O)CCN(Cc1ccc(F)cc1)C(=O)[C@H](CCCCN)NC(=O)COCCOCCOCCNC(=O)CCN(Cc1ccc(F)cc1)C(=O)[C@H](CCCCN)NC(=O)CCN(Cc1ccc(F)cc1)C(=O)[C@H](CCCCN)NC(=O)COCCOCCOCCNC(=O)CCN(Cc1ccc(F)cc1)C(=O)[C@H](CCCCN)NC(=O)CCN(Cc1ccc(F)cc1)C(=O)[C@@H](N)CCCCN)C(=O)N(CCC(N)=O)Cc1ccc(F)cc1 [Compound 17, H-[X]2-sPEG3-[X]2-sPEG3-[X]2-NH2]"
observed_result = 9.4

[[record]]
molecule = "NCCCC[C@H](NC(=O)CCN(Cc1ccc(F)cc1)C(=O)[C@H](CCCCN)NC(=O)CCN(Cc1ccc(F)cc1)C(=O)[C@H](CCCCN)NC(=O)CCN(Cc1ccc(F)cc1)C(=O)[C@H](CCCCN)NC(=O)CCN(Cc1ccc(F)cc1)C(=O)[C@H](CCCCN)NC(=O)CCN(Cc1ccc(F)cc1)C(=O)[C@H](CCCCN)NC(=O)COCCOCCN)C(=O)N(CCC(N)=O)Cc1ccc(F)cc1 [Compound 2, H-sPEG2-[X]6-NH2]"
observed_result = 2.4

